tested on: Human alphaherpesvirus 3; test: Antiviral activity against thymidine kinase expressing Varicella-Zoster virus Oka assessed as inhibition of plaque formation measured after 5 days post-infection; format: functional, organism-based; conditions: Human alphaherpesvirus 3, strain Oka vaccine, 120 h
Property label: pEC50
Answers are plain numbers, as −log10 of the molar value.

// worked examples, pEC50 included
* CCCCCOC(=O)CC(NP1(=O)COC(Cn2cnc3c(N)ncnc32)CO1)C(=O)OCCCCC (single isomer, unassigned) | 7.48
* CCCCCOC(=O)[C@@H](NP1(=O)CO[C@@H](Cn2cnc3c(N)ncnc32)CO1)C(C)C (stereo partly specified) | 9.24

Quick request: pEC50 for each listed item, please.
1. CCCCCOC(=O)C[C@H](NP1(=O)CO[C@@H](Cn2cnc3c(N)ncnc32)CO1)C(=O)OCCCCC (stereo partly specified)
2. CCCCCOC(=O)[C@H](CCSC)NP1(=O)CO[C@@H](Cn2cnc3c(N)ncnc32)CO1 (stereo partly specified)
3. CCCCCOC(=O)CC[C@H](NP1(=O)CO[C@@H](Cn2cnc3c(N)ncnc32)CO1)C(=O)OCCCCC (stereo partly specified)
4. CCCCCOC(=O)[C@@H](NP1(=O)CO[C@@H](Cn2cnc3c(N)ncnc32)CO1)[C@@H](C)CC (stereo partly specified)

Reply:
1. 8.85
2. 8.59
3. 9.24
4. 9.35

Quick request: pEC50 for each listed item, please.
1. CCCCCOC(=O)[C@H](CC(C)C)NP1(=O)CO[C@@H](Cn2cnc3c(N)ncnc32)CO1 (stereo partly specified)
2. CCCCCOC(=O)[C@H](C)NP1(=O)CO[C@@H](Cn2cnc3c(N)ncnc32)CO1 (stereo partly specified)
3. O=c1[nH]c(=O)n([C@H]2C[C@H](O)[C@@H](CO)O2)cc1/C=C/Br [BRIVUDINE]
4. CCCCCOC(=O)[C@@H](NP(=O)(CO[C@H](CO)Cn1cnc2c(N)ncnc21)N[C@H](C(=O)OCCCCC)C(C)C)C(C)C
5. CCCCCOC(=O)[C@H](Cc1ccccc1)NP1(=O)CO[C@@H](Cn2cnc3c(N)ncnc32)CO1 (stereo partly specified)

Reply:
[9.33, 8.70, 7.28, 8.82, 9.28]
